Test: membrane transition temperatures by X-ray diffraction
Assay type: physicochemical
Conditions: POPE with 1 mol % of TGM
property_label: Tm, solid-liquid transition temperature
Please state the value followed by its unit.

Consider the worked cases shown below.
[[record]]
molecule = "CCCCCC=CCC=CCCCCCCC(O)C(=O)OCC(COC(=O)C(O)CCCCCCC=CCC=CCCCCC)OC(=O)C(O)CCCCCCC=CCC=CCCCCC (stereo not shown)"
obs_value = "23.6 ± 0.3 °C"

[[record]]
molecule = "CCCCCCCCC=CCCCCCCC(O)C(=O)OCC(COC(=O)C(O)CCCCCCC=CCCCCCCCC)OC(=O)C(O)CCCCCCC=CCCCCCCCC (stereo not shown)"
obs_value = "23.8 ± 0.3 °C"

[[record]]
molecule = "CCC=CCC=CCC=CCC=CCC=CCC=CCC(O)C(=O)OCC(COC(=O)C(O)CC=CCC=CCC=CCC=CCC=CCC=CCC)OC(=O)C(O)CC=CCC=CCC=CCC=CCC=CCC=CCC (stereo not shown)"
obs_value = "23.3 ± 0.2 °C"


Need Tm, solid-liquid transition temperature of CCCCCC=CCC=CCC=CCCCC(O)C(=O)OCC(COC(=O)C(O)CCCC=CCC=CCC=CCCCCC)OC(=O)C(O)CCCC=CCC=CCC=CCCCCC (stereo not shown) , thanks. 23.3 ± 0.3 °C

Note, next up: CCCCCC(O)C(=O)OCC(COC(=O)C(O)CCCCC)OC(=O)C(O)CCCCC (stereo not shown) [TGM0, 1,2,3-tri(2′-hydroxyheptanoyl)glycerol] 22.7 ± 0.2 °C

# iterate: CCCCCC=CCC=CCC=CCC=CCCC(O)C(=O)OCC(COC(=O)C(O)CCC=CCC=CCC=CCC=CCCCCC)OC(=O)C(O)CCC=CCC=CCC=CCC=CCCCCC (stereo not shown) 23.2 ± 0.2 °C

Note, next up: CCC=CCC=CCC=CCCCCCCC(O)C(=O)OCC(COC(=O)C(O)CCCCCCC=CCC=CCC=CCC)OC(=O)C(O)CCCCCCC=CCC=CCC=CCC (stereo not shown) 23.4 ± 0.2 °C

###

Test system: HL-60 (myeloblastic leukaemia)
Assay: growth inhibition of human tumour cells, 72 h incubation
Format: cell-based
Conditions: 72 hours of incubation
This listing pairs compounds with measured pIC50.
pIC50 here is simply -log10 of the concentration when that concentration is written in mol/L.

Worked cases, pIC50 given:
[[record]]
compound = "CCCCCC=CCC=CCCCCCCC(O)C(=O)OCC(COC(=O)C(O)CCCCCCC=CCC=CCCCCC)OC(=O)C(O)CCCCCCC=CCC=CCCCCC (stereo not shown)"
property_label = "pIC50"
obs_value = 3.94

[[record]]
compound = "CCC=CCC=CCC=CCC=CCC=CCC=CCC(O)C(=O)OCC(COC(=O)C(O)CC=CCC=CCC=CCC=CCC=CCC=CCC)OC(=O)C(O)CC=CCC=CCC=CCC=CCC=CCC=CCC (stereo not shown)"
property_label = "pIC50"
obs_value = 5.22

[[record]]
compound = "CCC=CCC=CCC=CCCCCCCC(O)C(=O)OCC(COC(=O)C(O)CCCCCCC=CCC=CCC=CCC)OC(=O)C(O)CCCCCCC=CCC=CCC=CCC (stereo not shown)"
property_label = "pIC50"
obs_value = 4.24


Could you share which pIC50 value was measured for CCCCCCCCC=CCCCCCCC(O)C(=O)OCC(COC(=O)C(O)CCCCCCC=CCCCCCCCC)OC(=O)C(O)CCCCCCC=CCCCCCCCC (stereo not shown) ? 3.61

Okay, and CCCCCC=CCC=CCC=CCCCC(O)C(=O)OCC(COC(=O)C(O)CCCC=CCC=CCC=CCCCCC)OC(=O)C(O)CCCC=CCC=CCC=CCCCCC (stereo not shown) ? 4.38

Can you handle CCCCCC=CCC=CCC=CCC=CCCC(O)C(=O)OCC(COC(=O)C(O)CCC=CCC=CCC=CCC=CCCCCC)OC(=O)C(O)CCC=CCC=CCC=CCC=CCCCCC (stereo not shown) next? 4.49

Follow-up item: CCC=CCC=CCC=CCC=CCC=CCCC(O)C(=O)OCC(COC(=O)C(O)CCC=CCC=CCC=CCC=CCC=CCC)OC(=O)C(O)CCC=CCC=CCC=CCC=CCC=CCC (stereo not shown) 4.89
